As shown below, each of these compounds has a reported IC50 value.
Molecular target: HIV-1 RT wild type (WT) (Human immunodeficiency virus type 1 group M subtype B, UniProt P04585)
Construct: Heterodimeric RT was eluted using a descending gradient
Experiment: Reverse Transcriptase (RT) assay, wild type enzyme
metric-name: IC50

CCN1c2ncc(CCOc3cccc4c3C=CS(=O)(=O)N4)cc2C(=O)N(C)c2cccnc21; 100 to 1000 nM
CCN1c2ncc(CCOc3cccc4c3CS(=O)(=O)N4)cc2C(=O)N(C)c2ccc(F)nc21; < 100 nM
CCN1c2ncc(CCOc3cccc4c3CS(=O)(=O)N4C)cc2C(=O)Nc2c(C)cc(F)nc21; < 100 nM
CCN1c2ncc(CCOc3cccc4c3CCS(=O)(=O)N4CC(=O)NC(C)(C)C(=O)O)cc2C(=O)N(C)c2cccnc21; < 100 nM

----------
As shown below, each of these molecules has a reported IC50 value.
Biological target: HIV-1 RT wild type (WT) (Human immunodeficiency virus type 1 group M subtype B, UniProt P04585)
Construct: Heterodimeric RT was eluted using a descending gradient
Experiment: Reverse Transcriptase (RT) assay, wild type enzyme
metric-name: IC50

CCN1c2ncc(COc3ccc4c(c3)CS(=O)(=O)N4)cc2C(=O)N(C)c2ccc(F)nc21; < 100 nM
CCN1c2ncc(CCOc3cccc4c3CS(=O)(=O)N4Cc3cc[n+]([O-])cc3)cc2C(=O)Nc2c(C)cc(Cl)nc21; < 100 nM
Cc1cc(F)nc2c1N(C)C(=O)c1cc(CCOc3cccc4c3CS(=O)(=O)N4C)cnc1N2C1CC1; < 100 nM
CCN1c2ncc(CCOc3cccc4c3CCS(=O)(=O)N4C(=O)N3CCN(C)CC3)cc2C(=O)N(C)c2cccnc21; < 100 nM

----------
Target: HIV-1 RT double mutant K103N/Y181C (Human immunodeficiency virus type 1 group M subtype B, UniProt P04585, K690N/Y768C)
Construct: Heterodimeric RT was eluted using a descending gradient; the text describes only wild type and Y181C preparations)
Assay: Reverse Transcriptase (RT) assay, double mutant enzyme
metric-name: IC50

CCN1c2ncc(CCOc3cccc4c3CCS(=O)(=O)N4CCCC(=O)NN)cc2C(=O)N(C)c2cccnc21 [Compound 636]; < 100 nM
CCN1c2ncc(CCOc3ccc4c(c3)C(C)(C)NS4(=O)=O)cc2C(=O)Nc2c(C)ccnc21 [Compound 311]; 100 to 1000 nM
CCN1c2ncc(CCOc3ccc4c(c3)CS(=O)(=O)N4)cc2C(=O)N(C)c2cccnc21 [Compound 402]; > 1000 nM
CCN1c2ncc(CCOc3cccc4c3CS(=O)(=O)N4Cc3cc[n+]([O-])cc3)cc2C(=O)N(C)c2cccnc21 [Compound 130]; < 100 nM
CCN1c2ncc(CCOc3cccc4c3CS(=O)(=O)N4CC)cc2C(=O)N(C)c2ccc(C)nc21 [Compound 115]; < 100 nM
CCN1c2ncc(CCOc3ccc4c(c3)CNS4(=O)=O)cc2C(=O)N(C)c2cccnc21 [Compound 301]; 100 to 1000 nM
CCN1c2ncc(CCOc3cccc4c3CS(=O)(=O)N4CC(=O)O)cc2C(=O)N(C)c2cccnc21 [Compound 127]; 100 to 1000 nM

----------
Molecular target: HIV-1 RT double mutant K103N/Y181C (Human immunodeficiency virus type 1 group M subtype B, UniProt P04585, K690N/Y768C)
Construct: Heterodimeric RT was eluted using a descending gradient; the text describes only wild type and Y181C preparations)
Experiment: Reverse Transcriptase (RT) assay, double mutant enzyme
Experimental: Among the enzymes for which Human Immunodeficiency Virus (HIV-1) encodes is a reverse transcriptase (1), so-named because it transcribes a DNA copy from an RNA template. […] The 2.4× concentrated stock reaction mixture was aliquoted and stored at −20° C. […] The filters were dried, placed in plastic bags with Betaplate scintillation cocktail (Pharmacia/LKB) and counted in the Betaplate counter (Pharmacia/LKB). […]
metric-name: IC50

CCN1c2ncc(CCOc3cccc4c3CCS(=O)(=O)N4CCCC(=O)O)cc2C(=O)N(C)c2cccnc21; < 100 nM
CCN1c2ncc(CCOc3cccc4c3CS(=O)(=O)N4C)cc2C(=O)N(C)c2ccc(C)nc21; < 100 nM
CCN1c2ncc(CCOc3cccc4c3CCS(=O)(=O)N4Cc3ccc[n+]([O-])c3)cc2C(=O)N(C)c2cccnc21; < 100 nM
CCN(CC)CCN1c2cccc(OCCc3cnc4c(c3)C(=O)N(C)c3cccnc3N4CC)c2CCS1(=O)=O; < 100 nM
CCN1c2ncc(CCOc3cccc4c3CS(=O)(=O)N4Cc3cc[n+]([O-])cc3)cc2C(=O)Nc2c(C)ccnc21; < 100 nM
CCN1c2ncc(CCOc3cccc4c3C(C)(C)NS4(=O)=O)cc2C(=O)N(C)c2cccnc21; 100 to 1000 nM
CCN1c2ncc(CCOc3cccc4c3CCS(=O)(=O)N4CC(=O)OC)cc2C(=O)N(C)c2cccnc21; < 100 nM
CCN1c2ncccc2NC(=O)c2cc(CCOc3cccc4c3C=CS(=O)(=O)N4C)cnc21; 100 to 1000 nM
CCN1c2ncc(CCOc3cccc4c3CS(=O)(=O)N4CCOc3ccncc3)cc2C(=O)N(C)c2cccnc21; < 100 nM
CCN1c2ncc(CCOc3cccc4c3CS(=O)(=O)N4CC(=O)NC3CC3)cc2C(=O)N(C)c2cccnc21; 100 to 1000 nM
CCN1c2ncc(CCOc3ccc4c(c3)C(C)(C)N(C)S4(=O)=O)cc2C(=O)N(C)c2cccnc21; 100 to 1000 nM
Cc1cc(F)nc2c1N(C)C(=O)c1cc(CCOc3cccc4c3CS(=O)(=O)N4C)cnc1N2C1CC1; 100 to 1000 nM
CCN1c2ncc(CCOc3cccc4c3C=CS(=O)(=O)N4C)cc2C(=O)Nc2c(C)ccnc21; < 100 nM
CCN1c2ncc(CCOc3cccc4c3CCS(=O)(=O)N4Cc3ncc[nH]3)cc2C(=O)N(C)c2cccnc21; < 100 nM
CCN1c2ncc(CCOc3cccc4c3CCS(=O)(=O)N4CCCS(N)(=O)=O)cc2C(=O)N(C)c2cccnc21; < 100 nM
Cc1cc(F)nc2c1NC(=O)c1cc(CCOc3cccc4c3CS(=O)(=O)N4C)cnc1N2C1CC1; 100 to 1000 nM
CCN1C(=O)c2cc(CCOc3cccc4c3C=CS(=O)(=O)N4C)cnc2N(CC)c2ncccc21; < 100 nM
Cc1ccnc2c1NC(=O)c1cc(CCOc3cccc4c3C(C)(C)NS4(=O)=O)cnc1N2C1CC1; > 1000 nM
CCN1c2ncc(CCOc3cccc4c3CCN(CCCC(=O)O)S4(=O)=O)cc2C(=O)N(C)c2cccnc21; < 100 nM
CCN1c2ncc(CCOc3cccc4c3CNS4(=O)=O)cc2C(=O)N(C)c2cccnc21; < 100 nM
CCN1c2ncc(CCOc3cccc4c3CS(=O)(=O)N4)cc2C(=O)N(C)c2cccnc21; 100 to 1000 nM
CCN1c2ncc(CCOc3cccc4c3CS(=O)(=O)N4CC(C)C(=O)O)cc2C(=O)N(C)c2cccnc21 (centres unmarked); < 100 nM
CCN1c2ncc(CCOc3cccc4c3CCS(=O)(=O)N4CCCC(=O)NNCC(F)(F)F)cc2C(=O)N(C)c2cccnc21; < 100 nM

Reference source for all entries: patent US6716836B2
